Taken from patent US20210085692A1.

# PROTOCOL: Phase 1 multiple ascending dose clinical trial: plasma levels after weekly intravenous infusion
# Type: in vivo, human
# MEASUREMENT_CONTEXT: human; 2 mg intravenous infusion, plasma
ATTRIBUTE_MEASURED: Cmax (nM)
Return type: number; implicit unit nM.

(Q) Field request: Cmax | item: CC(=O)[C@H]1CC[C@H]2[C@@H]3CC[C@H]4C[C@H](O)CC[C@]4(C)[C@H]3CC[C@]12C [Allo, 3α-hydroxy-5α-pregnan-20-one]
(A) 63

---

# PROTOCOL: Phase 1 multiple ascending dose clinical trial: plasma levels after weekly intravenous infusion
# Format: in vivo, human
# MEASUREMENT_CONTEXT: human; 6 mg intravenous infusion, plasma
# Experimental: Clinical Trials were carried out in adult humans (see gov Identifier: NCT02221622 for the ongoing Phase 1b/2a clinical trial at https://clinicaltrials.gov/ct2/show/NCT02221622). […] The trial evaluated three doses (2.0, 4.0 and 6.0 mg) of allopregnanolone (Allo) in a delivery vehicle of 6% sulfobutylether-β-cyclodextrin and 0.9% sodium chloride and placebo containing an equal volume of 0.9% sodium chloride for injection USP administered by intravenous sinfusion once per week for 12 weeks. […]
ATTRIBUTE_MEASURED: Cmax (nM)
Return type: number; implicit unit nM.

(Q) Field request: Cmax | item: CC(=O)[C@H]1CC[C@H]2[C@@H]3CC[C@H]4C[C@H](O)CC[C@]4(C)[C@H]3CC[C@]12C [Allo, 3α-hydroxy-5α-pregnan-20-one]
(A) 248

---

# PROTOCOL: Phase 1 multiple ascending dose clinical trial: plasma levels after weekly intravenous infusion
# Type: in vivo, human
# MEASUREMENT_CONTEXT: human; 4 mg intravenous infusion, plasma
ATTRIBUTE_MEASURED: Cmax (µM)
Return type: number; implicit unit µM.

(Q) Field request: Cmax | item: CC(=O)[C@H]1CC[C@H]2[C@@H]3CC[C@H]4C[C@H](O)CC[C@]4(C)[C@H]3CC[C@]12C [Allo, 3α-hydroxy-5α-pregnan-20-one]
(A) 0.13
